Attribution: PubChem BioAssay AID1423

Target: Guanine nucleotide-binding protein G(o) subunit alpha (Homo sapiens) (UniProt P09471)
Sequence (P09471 whole entry, looked up): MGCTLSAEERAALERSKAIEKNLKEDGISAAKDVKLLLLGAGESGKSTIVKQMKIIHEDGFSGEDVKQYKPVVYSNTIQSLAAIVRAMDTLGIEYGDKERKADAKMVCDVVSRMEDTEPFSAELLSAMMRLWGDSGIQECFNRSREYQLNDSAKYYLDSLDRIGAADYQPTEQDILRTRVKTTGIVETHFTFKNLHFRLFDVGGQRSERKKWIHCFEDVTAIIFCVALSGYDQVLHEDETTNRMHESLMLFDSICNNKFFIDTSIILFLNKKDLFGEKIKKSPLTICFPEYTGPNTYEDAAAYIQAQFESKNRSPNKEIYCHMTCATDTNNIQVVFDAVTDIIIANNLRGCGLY
Assay: compounds changing RGS8 association with Galphao – biochemical, multiplexed bead flow cytometry, primary screen (AID 1423);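 further: Galphao activated as the GDP aluminium fluoride complex binding bead-coupled RGS8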
Conditions: at 10 µM, actives lie on both sides
About 750 (0.34%) of roughly 220,000 compounds were called active. The full list was thinned out, with actives kept by preference.
observed property: response (percent of control binding)

INSERT INTO measurements (compound, meas_value) VALUES
  ('NS(=O)(=O)c1ccc(CCNC(=O)c2ccc(Cl)cc2[N+](=O)[O-])cc1', '102% (inactive)'),
  ('COC(=O)C1=C(C)NC(=O)/C1=C/c1ccc(CNS(=O)(=O)c2ccc(C)cc2)o1', '91% (inactive)'),
  ('CN(C)S(=O)(=O)c1cccc(NC(=O)COC(=O)/C=C/c2cccs2)c1', '102% (inactive)'),
  ('CCc1ccc(C(=O)OCC(=O)Nc2cccc(S(=O)(=O)NC3=NCCCCC3)c2)cc1', '104% (inactive)'),
  ('CC1(C)C2CC=C(/C=N/NC(=O)c3ccc(Cl)cc3)C1C2 (stereo not given)', '105% (inactive)');

---

Target: Guanine nucleotide-binding protein G(o) subunit alpha (Homo sapiens) (UniProt P09471)
Assay: compounds changing RGS8 association with Galphao – biochemical, multiplexed bead flow cytometry, primary screen (AID 1423);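 further: Galphao activated as the GDP aluminium fluoride complex binding bead-coupled RGS8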
Settings: at 10 µM, actives lie on both sides
Screen size: about 220,000 compounds; about 750 (0.34%) were called active. Cut-off read from the data, not from the text of the source: active = response below about 60% or above about 140%; inactive = in between. Shown is part of a subset that was picked to be rich in actives.
Outcome codes: active, inactive

INSERT INTO assay_data (compound, answer_label) VALUES
  ('CC(=O)Nc1nc(N(C)C)nc(N(C)C)n1', 'active'),
  ('CONC(=O)c1cc(OCC(F)(F)F)ccc1OCC(F)(F)F', 'inactive'),
  ('CCN(CC)CCNCC(=O)Nc1ccc(Oc2ccccc2)cc1', 'inactive'),
  ('CCc1nnc(NC(=O)CCCSc2nc3ccccc3[nH]2)s1', 'inactive'),
  ('COC(=O)c1cc(NC(=O)C2C3C=CC(C3)C2C(=O)O)cc(C(=O)OC)c1 (stereo unspecified)', 'inactive'),
  ('Cc1onc(-c2ccc(Cl)cc2)c1-c1ccnn1S(=O)(=O)c1ccc(Cl)cc1', 'inactive'),
  ('O=C(CN1CCOCC1)Nc1ccc(NC(=O)CN2CCOCC2)c(Cl)c1', 'inactive'),
  ('CC(OC(=O)c1ccc2ccccc2n1)C(=O)c1ccccc1 (stereo unspecified)', 'inactive'),
  ('CC(C)Cc1nc(Nc2ccc(S(=O)(=O)N3CCCC3)cc2)c2nnn(Cc3ccccc3)c2n1', 'active'),
  ('CN1CCN(S(=O)(=O)c2ccc(N3CCN(S(=O)(=O)c4cccs4)CC3)nc2)CC1', 'inactive'),
  ('CCSc1nc(C)c(CCOc2cccc(C)c2)c(=O)[nH]1', 'inactive'),
  ('COc1cccc(C(=O)NNC(=O)c2ccccc2Br)c1', 'inactive'),
  ('O=C(CCCl)Nc1ccc(S(=O)(=O)NCc2ccco2)cc1', 'inactive'),
  ('O=[N+]([O-])C(=c1ccc2c(c1)N1C3=C(CCCC3)CC3CCCCC31N=2)[N+](=O)[O-] (stereo unspecified)', 'active'),
  ('Cc1cccc(C)c1OCC(O)CN1CCCCC1 (stereo unspecified)', 'inactive'),
  ('C=C(C)CNC(=S)/N=c1\scc(C)n1CC', 'inactive'),
  ('Cc1c(C(=O)Nc2cccc(-c3nnc4n3CCCCC4)c2)oc2ccccc12', 'inactive'),
  ('COc1cc(OC)cc(C(=O)NCCSCc2ccco2)c1', 'inactive'),
  ('NC(=O)CSc1c[nH]c2ccccc12', 'active'),
  ('O=C(NNc1c2ccccc2nc2ccccc12)c1cc2ccccc2cc1O', 'inactive'),
  ('COc1cccc(C(=O)NCCSc2ccc(Br)cc2)c1', 'active'),
  ('C=CCOC(=O)C1=C(C)N=C2SCCC(=O)N2C1/C=C/c1ccccc1OC (stereo unspecified)', 'inactive'),
  ('CC(NC(=O)CCC(=O)N1CCN(S(=O)(=O)c2ccc(Cl)cc2)CC1)c1ccccc1 (stereo unspecified)', 'inactive'),
  ('Cc1nc(Nc2ccc(S(=O)(=O)N3CCCC3)cc2)c2nnn(Cc3ccccc3)c2n1', 'inactive'),
  ('O=C(NC1CCCCC1)C1CCCN(S(=O)(=O)c2ccc(Br)s2)C1 (stereo unspecified)', 'inactive'),
  ('Cc1nnc(-c2ccc(Oc3ccc(C)c(C)c3)c([N+](=O)[O-])c2)o1', 'inactive'),
  ('Cc1ccc(OCC(O)CN2CCN(CC(O)COc3ccc(C)cc3Cl)CC2)c(Cl)c1 (stereo unspecified)', 'active'),
  ('CC(=O)c1c(C)[nH]c(C(=O)OCC(=O)Nc2sc3c(c2C#N)CCCC3)c1C', 'inactive'),
  ('Cc1ccccc1OCC(O)CN1CCN(c2ccccn2)CC1 (stereo unspecified)', 'inactive'),
  ('CC(NC(=O)COC(=O)C1CCN(S(=O)(=O)c2ccccc2C(F)(F)F)CC1)c1ccccc1 (stereo unspecified)', 'active'),
  ('Cn1cc(-c2ccccc2)cc(C#N)c1=O', 'inactive'),
  ('O=C(CN1CCOCC1)Nc1c(Cl)cc(Cl)cc1Cl', 'inactive'),
  ('CC(C)(C)C1C/C(=C/c2ccco2)C(=O)/C(=C/c2ccco2)C1 (stereo unspecified)', 'inactive'),
  ('Cc1ncn2cc(-c3ccc(Cl)cc3Cl)[nH]c(=O)c12', 'inactive'),
  ('O=C(COc1nc2ccccc2nc1N1CCOCC1)NCC(F)(F)F', 'inactive'),
  ('O=C(COC(=O)c1ccc[nH]c1=O)Nc1ccc2c(c1)OC(F)(F)O2', 'inactive'),
  ('COC(=O)C1=C(C)N(c2ccc(C)cc2)/C(=C/c2ccc(O)cc2)C1=O', 'inactive'),
  ('COc1cc(C2C(C(=O)c3ccc(C)o3)=C(O)C(=O)N2CCc2ccccc2)ccc1O (stereo unspecified)', 'inactive'),
  ('COc1ccc(C(=O)COC(=O)c2ccc3ccccc3n2)cc1', 'active'),
  ('O=[N+]([O-])c1ccccc1Nc1ccc(O)cc1', 'inactive'),
  ('S=C1NC(c2ccccc2)=NCN1c1ccc(Br)cc1', 'inactive'),
  ('COC(=O)Nc1ncc(CN2CCCCC2)s1', 'inactive'),
  ('COc1cc(OC)nc(NC(=O)CCl)n1', 'inactive'),
  ('COc1ccc(N2C(=O)CNC2=S)cc1', 'inactive'),
  ('CC(=O)c1cc2c(cc1NC(=O)CN1CCCCCC1)OCO2', 'inactive'),
  ('CC(C)(C)NC(=O)NC(=O)COC(=O)Cc1c(F)cccc1Cl', 'inactive');

---

Molecular target: Guanine nucleotide-binding protein G(o) subunit alpha (Homo sapiens) (UniProt P09471)
Test: compounds changing RGS8 association with Galphao – biochemical, multiplexed bead flow cytometry, primary screen (AID 1423);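 further: Galphao activated as the GDP aluminium fluoride complex binding bead-coupled RGS8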
Conditions: at 10 µM, actives lie on both sides
Screen size: about 220,000 compounds; about 750 (0.34%) were called active. No stated cut-off is given here; in the data, active means response below about 60% or above about 140%; inactive means in between. The entries come from a sample that favours actives as a whole.
Outcome codes: t for active, f for inactive

INSERT INTO assay_data (molecule, answer_label) VALUES
  ('CCOC(=O)C1CCCN(C(=O)/C=C/c2ccc(OC)cc2)C1 (configuration not stated)', 'f'),
  ('CN(C)S(=O)(=O)c1cccc(-c2nn(-c3ccccc3)cc2/C=C2\SC(=S)N(CC(=O)O)C2=O)c1', 'f'),
  ('O=C(C1CC1)N1N=C2CCCCC2C1(O)C(F)(F)F (configuration not stated)', 'f'),
  ('Cc1cc(=O)oc2cc(OCCC[n+]3ccccc3)ccc12', 'f'),
  ('Cc1ccc(N(CC(O)CN2CCCC2)S(=O)(=O)c2ccccc2)cc1 (configuration not stated)', 'f'),
  ('COc1ccc(C(=O)NNC(=O)c2cc(C)[nH]n2)cc1', 'f'),
  ('Cc1ccccc1Cn1nc(C)c(NC(=O)C(F)(F)F)c1C', 'f'),
  ('COc1ccc(CC(=O)N[C@@H](CCSC)c2nc3ccccc3[nH]2)cc1', 'f'),
  ('Cc1nc(N2CCOCC2)nc2c1CCCC2', 'f'),
  ('Cc1ccc(S(=O)(=O)CC(=O)Nc2c(C)n(C)n(-c3ccccc3)c2=O)cc1', 'f'),
  ('Cc1c(NC(=O)C(=O)N/N=C/c2cccs2)c(=O)n(-c2ccccc2)n1C', 'f'),
  ('CCOC(=O)c1c(/N=C/C2C(=O)CC(C)(C)CC2=O)sc(C)c1C', 'f'),
  ('COc1ccc(COCC(O)CN2CCC(C(N)=O)CC2)cc1 (configuration not stated)', 'f'),
  ('O=C(CSc1nc2ccc(Nc3nc(N4CCOCC4)nc(N4CCOCC4)n3)cc2s1)NCc1ccco1', 'f'),
  ('COCCCN1C(=O)C(=O)/C(=C(/O)c2ccc3c(c2)CC(C)O3)C1c1cccnc1 (configuration not stated)', 'f'),
  ('Cn1nc(-c2ccccc2)c(CO)c1Sc1ccccc1', 'f'),
  ('NC(=O)C1(N2CCCCC2)CCN(C2CC(=O)N(Cc3ccc(N4CCCC4=O)cc3)C2=O)CC1 (configuration not stated)', 'f'),
  ('COc1ccc(C(=O)NNc2cc(C)nc(NNC(=O)c3ccc(OC)cc3)n2)cc1', 't'),
  ('O=C(CC1SC(=Nc2ccccc2F)N(CCN2CCOCC2)C1=O)Nc1ccc(F)cc1F (configuration not stated)', 'f'),
  ('CCn1c(CSCc2c(Cl)cccc2Cl)n[nH]c1=S', 't'),
  ('Cc1cc(C)n(CC(O)CN(c2ccccc2)S(=O)(=O)c2ccc3ccccc3c2)n1 (configuration not stated)', 't'),
  ('O=C(COC(=O)CC1CC2CCC1C2)NC(=O)NC1CCCC1 (configuration not stated)', 'f'),
  ('CCOC(=O)CNc1nc2ccccc2n2c(C)nnc12', 'f'),
  ('O=C(CSc1nnc2n1CCCN2)c1ccccc1', 'f'),
  ('COc1cccc2c(N/N=C/c3ccco3)cc(C)nc12', 'f'),
  ('O=C(COC(=O)/C(=C/c1cccs1)c1cccs1)NCc1ccccc1Cl', 'f'),
  ('N#Cc1nc(-c2ccc(OCc3ccccc3)cc2)oc1NCCCN1CCOCC1', 'f'),
  ('CC(NC(=O)C1CCC(CNc2c(N3CCOCC3)c(=O)c2=O)CC1)c1ccccc1 (configuration not stated)', 'f'),
  ('O=C1C2C3C=CC(C4CC34)C2C(=O)N1c1nccs1 (configuration not stated)', 'f'),
  ('S=c1[nH]nc(CSCc2ccc(Cl)cc2Cl)n1-c1ccccc1', 'f'),
  ('O=S(=O)(c1ccc(Br)cc1)c1nc(-c2ccccc2)oc1NCc1cccnc1', 'f'),
  ('O=C(Oc1cccc(N2C(=O)C3C4c5ccccc5C(c5ccccc54)C3C2=O)c1)c1ccco1 (configuration not stated)', 'f'),
  ('O=C(NCc1ccc(F)cc1)C1CCC(CNc2c(N3CCOCC3)c(=O)c2=O)CC1 (configuration not stated)', 't'),
  ('COc1ccc(-c2onc(C)c2-c2ccc3c(c2)OCCO3)c(O)c1', 'f'),
  ('Cc1ccc(S(=O)(=O)N2CCOCC2)cc1C(=O)NC(=S)N(Cc1ccccc1)C(C)C', 'f'),
  ('O=C(Cn1nnc(-c2ccccc2)n1)N/N=C/c1ccc(-c2ccc(Cl)cc2)o1', 'f'),
  ('CCOC(=O)NNc1cc(C(F)(F)F)ccn1', 'f'),
  ('COc1ccc(NC(=S)NCC2CCN(c3ccc(OC)cc3)C2)cc1 (configuration not stated)', 'f'),
  ('O=C(O)c1ccc2c3c(cccc13)C(=O)N(OS(=O)(=O)c1ccccc1)C2=O', 'f'),
  ('CCc1cc(C(=O)c2ccc(OC)cc2)c(NC(=O)CN2CCN(C)CC2)s1', 'f'),
  ('CC[C@H]1OC(=O)[C@H](C)[C@@H](O[C@H]2C[C@@](C)(OC)[C@@H](O)[C@H](C)O2)[C@H](C)[C@@H](O[C@@H]2O[C@H](C)C[C@H](N(C)C)[C@H]2O)[C@](C)(O)C[C@@H](C)[C@@H]2N[C@@H](COCCOC)O[C@H]([C@H]2C)[C@]1(C)O', 'f'),
  ('O=C1CCC/C(=N\NC(=O)NC2CCCCC2)C1', 'f');
